// values below are reported IC50
Tested on: Vero
Assay: Cytotoxicity against african green monkey Vero cells by tetrazolium dye reduction assay
Assay type: ADME, cell-based
Details: Chlorocebus sabaeus
propertyName: IC50 (µM)

entrySmiles	op	reportedResult
CC(C)CCC[C@@H](C)[C@H]1CC[C@H]2[C@@H]3CC(=O)[C@H]4C[C@@H](O[Si](C)(C)C)CC[C@]4(C)[C@H]3CC[C@]12C	=	38
CC(=O)O[C@H]1CC[C@@]2(C)[C@@H](CC(=O)[C@@H]3[C@@H]2CC[C@]2(C)[C@@H]([C@H](C)CCCC(C)(C)O)CC[C@@H]32)C1	>	128
CC(=O)O[C@H]1CC[C@@]2(C)C(=CC(=O)[C@H]3[C@@H]4CC[C@H]([C@H](C)CCCC(C)(C)O)[C@@]4(C)CC[C@@H]32)C1	>	128
CC(C)CCC[C@@H](C)[C@H]1CC[C@H]2[C@@H]3C(=O)C=C4C[C@@H](O)CC[C@]4(C)[C@H]3CC[C@]12C	=	75
CC(C)CCC[C@@H](C)[C@H]1CC[C@H]2[C@@H]3C(=O)C[C@H]4C[C@@H](O)CC[C@]4(C)[C@H]3CC[C@]12C	=	62
C[C@@H](CO)CCC[C@@H](C)[C@H]1[C@@H](O)C[C@H]2[C@@H]3CC=C4C[C@@H](O)CC[C@]4(C)[C@H]3CC[C@]12C	>	128
